Consider the following compounds and their measured TGI readings.
# Test system: RXF 393 renal
# test-protocol: NCI tumour cell line growth inhibition, 48 h

>  <compound-string>
FC(F)(Sc1nc2ccccc2[nH]1)c1nc2ccccc2o1

>  <TGI>
> 100 µM

$$$$
>  <compound-string>
COc1ccc(NC(=S)Nc2cccc(C)n2)cc1

>  <TGI>
> 100 µM

$$$$
>  <compound-string>
CCc1nc2cc(F)ccc2[nH]c1=O

>  <TGI>
> 100 µM

$$$$

---

# Test system: SNB-78 CNS
# test-protocol: NCI tumour cell line growth inhibition, 48 h
endpoint-label: TGI

>  <molecule>
Cc1[nH]n(C(=O)c2ccc(Cl)cc2)c(=O)c1/C=C1\C(O)=CC(=O)c2ccccc21

>  <endpoint-label>
TGI

>  <observed-measurement>
> 100 µM

$$$$
>  <molecule>
NS(=O)(=O)C1CCCCC1C(=O)NNC(=O)C(=O)Nc1nc(=S)[nH][nH]1 (stereo not given)

>  <endpoint-label>
TGI

>  <observed-measurement>
> 100 µM

$$$$
>  <molecule>
CCOC(=O)c1c(/C=N\Nc2ccccc2)nc2ccccc2c1-c1ccccc1

>  <endpoint-label>
TGI

>  <observed-measurement>
> 100 µM

$$$$
>  <molecule>
Cn1c(=O)c(C#N)c(O)c2cc3ccccc3nc21

>  <endpoint-label>
TGI

>  <observed-measurement>
> 100 µM

$$$$
>  <molecule>
CN(C)c1ccc(/C=C2\Cc3ccccc3C2=O)cc1Br

>  <endpoint-label>
TGI

>  <observed-measurement>
> 100 µM

$$$$
>  <molecule>
Cc1c(N(Cc2ccccc2)Cc2ccccc2)nc(S(C)(=O)=O)nc1S(C)(=O)=O

>  <endpoint-label>
TGI

>  <observed-measurement>
4.81 µM

$$$$
>  <molecule>
COC(=O)CCSC(=O)Nc1ccccc1Cl

>  <endpoint-label>
TGI

>  <observed-measurement>
> 100 µM

$$$$
>  <molecule>
CCCCc1c2c(nc3c1CC/C(=C\c1ccccc1)C3=O)CCCC2

>  <endpoint-label>
TGI

>  <observed-measurement>
9.38 µM

$$$$
>  <molecule>
O=c1cccccc1[O-].O=c1cccccc1[O-].O=c1cccccc1[O-].[Dy+3]

>  <endpoint-label>
TGI

>  <observed-measurement>
> 100 µM

$$$$
>  <molecule>
O=[N+]([O-])c1cccc(C2=NOC3CCCC23)c1 (stereo not given)

>  <endpoint-label>
TGI

>  <observed-measurement>
> 100 µM

$$$$

---

# Test system: SR leukemia
# test-protocol: NCI tumour cell line growth inhibition, 48 h
Consider the following compounds and their measured TGI readings.
endpoint-label: TGI

>  <compound>
NC1CC(n2ccc(=O)[nH]c2=O)OC1C(O)CO (stereo unspecified)

>  <observed-measurement>
> 100 µM

$$$$
>  <compound>
Nc1ccc2ncc(Nc3ccc(Cl)c(Cl)c3)nc2c1

>  <observed-measurement>
> 100 µM

$$$$
>  <compound>
COc1cc(COC(=O)NC(Cc2cccs2)C(=O)O)c([N+](=O)[O-])cc1OC (stereo unspecified)

>  <observed-measurement>
> 100 µM

$$$$
>  <compound>
CC(C)C12CCC3(CCC4C(C)(C(=O)O)CCCC4(C)C3C1)C(CN)C2 (stereo unspecified)

>  <observed-measurement>
60.1 µM

$$$$
>  <compound>
O=C1Cc2c(-c3ccccc3)cc(-c3ccc(Cl)cc3)nc2-c2ccccc2N1

>  <observed-measurement>
> 100 µM

$$$$
>  <compound>
CCc1c[nH]c2ncnc(N3CC[C@](N)(CNC(=O)c4ccc(F)cc4F)C3)c12

>  <observed-measurement>
> 66.3 µM

$$$$
>  <compound>
CN1CCN(Cc2ccc(NC(=O)c3cncc(C#Cc4cnc5cccnn45)c3)cc2C(F)(F)F)CC1

>  <observed-measurement>
17.6 µM

$$$$
>  <compound>
CCN(CC)CCCNc1nnc(C)c2[nH]c3ccccc3c12

>  <observed-measurement>
32.6 µM

$$$$
>  <compound>
COC(=O)N/N=C(\c1nc2ccc(Cl)cc2[nH]c1=O)C(O)c1ccc([N+](=O)[O-])cc1 (stereo unspecified)

>  <observed-measurement>
> 100 µM

$$$$
>  <compound>
N#Cc1c2c(c(Nc3ccc(Cl)cc3)n3c1nc1ccccc13)CCCC2

>  <observed-measurement>
> 100 µM

$$$$
>  <compound>
CCN(CCCl)c1ccc(NC(=O)c2cc(C(=O)NCCN(C)C)cc(C(=O)Nc3ccc(N(CC)CCCl)cc3)c2)cc1

>  <observed-measurement>
> 100 µM

$$$$
